Biological target: 1 (human, UniProt Q9H0R8 1-117)
Sequence (Q9H0R8 whole entry): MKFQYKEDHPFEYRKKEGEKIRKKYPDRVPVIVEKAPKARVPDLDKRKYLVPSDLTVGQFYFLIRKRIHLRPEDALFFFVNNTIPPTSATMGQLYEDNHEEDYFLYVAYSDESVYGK
Test: BLI
Where no end group is shown, it is not given here. The star is where a group is joined. Biotin = O=C1N[C@H]2[C@H](CS[C@H]2CCCCC(=O)*)N1
We begin with a simple list: items and their reported pKd.
// pKd: -log10(molar conc.)

{"binder": "Biotin-STAENAEYLRVAPQSSEFIGA [EGFR LIR2 peptide (EGFR residues 1190–1210), N-terminally biotinylated]", "measured result": 4.32}

Kindly review the next binder as well.
Which pKd is listed for Biotin-ALTEDSIDDTFLPVPEYINQSVPK [EGFR LIR1 peptide (EGFR residues 1076–1099), N-terminally biotinylated] ?
4.67

All values here come from paper doi:10.1101/2024.07.10.602929.
